Documented pKi across a set of compounds
- experimentalTarget: PPAR-γ (Homo sapiens, UniProt P37231)
- Sequence (P37231 whole entry, species assumed): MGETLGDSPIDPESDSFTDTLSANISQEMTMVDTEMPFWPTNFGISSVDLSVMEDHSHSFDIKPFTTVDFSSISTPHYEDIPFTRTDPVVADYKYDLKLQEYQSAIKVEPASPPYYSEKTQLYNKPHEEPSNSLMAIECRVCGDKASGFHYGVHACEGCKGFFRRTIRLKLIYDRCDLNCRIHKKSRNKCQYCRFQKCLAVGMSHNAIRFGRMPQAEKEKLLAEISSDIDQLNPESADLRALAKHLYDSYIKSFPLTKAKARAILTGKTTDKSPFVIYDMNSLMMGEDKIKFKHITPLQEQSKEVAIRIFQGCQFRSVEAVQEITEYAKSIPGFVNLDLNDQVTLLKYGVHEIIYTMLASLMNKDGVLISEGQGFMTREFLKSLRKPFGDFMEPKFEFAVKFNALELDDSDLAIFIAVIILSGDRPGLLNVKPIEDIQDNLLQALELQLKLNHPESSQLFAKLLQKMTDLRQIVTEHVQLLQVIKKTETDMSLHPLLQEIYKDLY
- experimentNotes: Scintillation Proximity Assay (SPA), displacement of 3H labeled darglitazone
- Assay type: binding
- runConditions: 3H darglitazone displacement, read-out: PPAR-gamma Ki
pKi: −log10 of the molar value.
recordedEndpoint: pKi

>  <compound>
Cc1oc(-c2ccccc2)nc1CCOc1cccc(CC2(C(=O)O)CCC2)c1

>  <experimentalValue>
5.46

$$$$
>  <compound>
COC(Cc1ccc(OCCc2ccc(OS(C)(=O)=O)cc2)nc1)C(=O)O (stereo not shown)

>  <experimentalValue>
5.09

$$$$
>  <compound>
Cc1oc(-c2ccccc2)nc1COc1ccc2cc(CC3(C(=O)O)CCCO3)ccc2c1 (stereo not shown)

>  <experimentalValue>
7.96

$$$$
>  <compound>
O=C(O)C1(Cc2ccc(OCCc3ccc(-c4cccc(OC(F)(F)F)c4)cc3)cc2)CCC1

>  <experimentalValue>
5.85

$$$$

###

- experimentalTarget: PPAR-α (Homo sapiens)
- Sequence (Q07869 whole entry, species assumed): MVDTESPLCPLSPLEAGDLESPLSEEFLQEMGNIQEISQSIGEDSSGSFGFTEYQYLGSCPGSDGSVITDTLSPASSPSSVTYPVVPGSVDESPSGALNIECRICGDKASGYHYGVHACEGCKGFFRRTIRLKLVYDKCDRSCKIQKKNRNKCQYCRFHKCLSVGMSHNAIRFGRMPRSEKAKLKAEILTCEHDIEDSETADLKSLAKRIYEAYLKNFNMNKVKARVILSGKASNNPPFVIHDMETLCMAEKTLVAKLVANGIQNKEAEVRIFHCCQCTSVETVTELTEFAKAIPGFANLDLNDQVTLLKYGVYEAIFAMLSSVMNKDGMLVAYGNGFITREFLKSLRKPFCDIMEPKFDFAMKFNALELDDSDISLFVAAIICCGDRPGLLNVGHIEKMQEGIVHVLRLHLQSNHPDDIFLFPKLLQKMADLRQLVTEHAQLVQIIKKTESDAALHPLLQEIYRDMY
- experimentNotes: Scintillation Proximity Assay (SPA), displacement of 3H labeled GW2331
- Type: binding
- runConditions: 3H GW2331 displacement, read-out: PPAR-alpha Ki
pKi: −log10 of the molar value.
Parameter: pKi. Scope: all listed entries.
recordedEndpoint: pKi

>  <compound>
CCOC(Cc1ccc(OCCc2ccc(OC(F)(F)F)cc2)nc1)C(=O)O (stereo not shown)

>  <experimentalValue>
6.08

$$$$
>  <compound>
COC(C)(Cc1ccc(OCCc2nc(-c3ccccc3)sc2C)nc1)C(=O)O (stereo not shown)

>  <experimentalValue>
6.26

$$$$
>  <compound>
COc1ccc(-c2ccc(CCOc3ccc(CC4(C(=O)O)CCC4)cc3)cc2)cn1

>  <experimentalValue>
4.72

$$$$
>  <compound>
Cc1oc(-c2ccccc2)nc1COc1ccc(OC2(C(=O)O)CCC2)cc1

>  <experimentalValue>
4.89

$$$$
>  <compound>
Cn1nc(-c2ccccc2)nc1CCOc1cccc(-c2cccc(OC(C)(C)C(=O)O)c2)c1

>  <experimentalValue>
5.38

$$$$
>  <compound>
Cc1oc(-c2ccccc2)nc1C/C=C/c1ccc(OC2(C(=O)O)CCC2)cc1

>  <experimentalValue>
5.49

$$$$
>  <compound>
Cc1oc(-c2ccccc2)nc1CCNC(=O)OCc1cccc(OC(C)(C)C(=O)O)c1

>  <experimentalValue>
5.40

$$$$
>  <compound>
COc1ccc(-c2nc(CCOc3ccc(CC4(C(=O)O)CCCO4)nc3)c(C)o2)cc1 (stereo not shown)

>  <experimentalValue>
6.19

$$$$
>  <compound>
Cc1oc(-c2cccc(Cl)c2)nc1CCOc1ccc(CC2(C(=O)O)CCCO2)cn1 (stereo not shown)

>  <experimentalValue>
7.27

$$$$
>  <compound>
CC(C)(Oc1cccc(-c2cccc(OCc3ccc(C(F)(F)F)cc3)c2)c1)C(=O)O

>  <experimentalValue>
6.26

$$$$
>  <compound>
COC(C)(Cc1ccc(OCCc2nc(-c3cccc(F)c3)oc2C)nc1)C(=O)O (stereo not shown)

>  <experimentalValue>
6.00

$$$$
>  <compound>
CC(C)(Oc1cccc(COC(=O)NCCc2ccc(C(F)(F)F)cc2)c1)C(=O)O

>  <experimentalValue>
4.32

$$$$
>  <compound>
CCOc1ccc(-c2nc(CCOc3ccc(CC(C)(OC)C(=O)O)cn3)c(C)o2)cc1 (stereo not shown)

>  <experimentalValue>
5.33

$$$$
>  <compound>
Cc1ccc(CCOc2ccc(CC3(C(=O)O)CCCO3)cn2)cc1 (stereo not shown)

>  <experimentalValue>
5.01

$$$$
>  <compound>
Cc1oc(-c2ccc(C(N)=O)cc2)nc1CCOc1ccc(CC2(C(=O)O)CCCO2)cc1 (stereo not shown)

>  <experimentalValue>
6.12

$$$$
>  <compound>
CCOC(Cc1ccc(OCCc2ccc(OS(C)(=O)=O)cc2)nc1)C(=O)O (stereo not shown)

>  <experimentalValue>
5.19

$$$$
>  <compound>
Cc1oc(-c2ccccc2)nc1CCCOc1cccc(-c2cccc(OC(C)(C)C(=O)O)n2)c1

>  <experimentalValue>
5.00

$$$$
>  <compound>
COc1cccc(-c2nc(CCOc3ccc(CC4(C(=O)O)CCC4)cc3)c(C)o2)c1

>  <experimentalValue>
6.92

$$$$
>  <compound>
O=C(O)C1(Cc2ccc(OCCc3ccc(-c4ccc5c(c4)OCC5)cc3)cc2)CCC1

>  <experimentalValue>
5.03

$$$$
>  <compound>
CCOC(Cc1ccc(OCCCc2nc(-c3ccccc3)oc2C)cn1)C(=O)O (stereo not shown)

>  <experimentalValue>
6.03

$$$$
>  <compound>
Cc1oc(-c2ccc(C(F)(F)F)cc2)nc1CCOc1ccc(CC2(C(=O)O)CCCO2)cn1 (stereo not shown)

>  <experimentalValue>
7.68

$$$$
>  <compound>
Cc1oc(-c2ccccc2)nc1CCOc1cccc(CC2(C(=O)O)CCC2)c1

>  <experimentalValue>
7.19

$$$$
>  <compound>
COc1ccc(-c2nc(CCOc3ccc(CC(OC)C(=O)O)cn3)c(C)o2)cc1 (stereo not shown)

>  <experimentalValue>
6.49

$$$$
>  <compound>
Cc1oc(-c2ccccc2)nc1CCOc1ccc(CC2(C(=O)O)CCOCC2)cc1

>  <experimentalValue>
4.82

$$$$
>  <compound>
Cc1oc(-c2ccccc2)nc1CCCOc1cccc(-c2cccc(OC3(C(=O)O)CCC3)c2)c1

>  <experimentalValue>
6.46

$$$$
>  <compound>
Cc1oc(-c2ccc(Cl)cc2)nc1CCOc1ccc(CC2(C(=O)O)CCC2)cc1

>  <experimentalValue>
7.82

$$$$
>  <compound>
COC(C)(Cc1ccc(OCCc2nc(-c3cccc(C)c3)oc2C)nc1)C(=O)O (stereo not shown)

>  <experimentalValue>
6.14

$$$$
>  <compound>
CCOc1ccc(CCOc2ccc(CC(OCC)C(=O)O)cn2)cc1 (stereo not shown)

>  <experimentalValue>
5.00

$$$$
>  <compound>
COC(Cc1ccc(OCCc2ccc(Oc3ccccc3)cc2)nc1)C(=O)O (stereo not shown)

>  <experimentalValue>
6.72

$$$$
>  <compound>
Cc1oc(-c2cccc(N(C)C)c2)nc1CCOc1ccc(CC2(C(=O)O)CCC2)cc1

>  <experimentalValue>
7.18

$$$$
>  <compound>
CC(C)(Oc1cccc(CNC(=O)OCc2cccc(Oc3ccccc3)c2)c1)C(=O)O

>  <experimentalValue>
6.72

$$$$
>  <compound>
Cc1oc(-c2ccc(C(N)=O)cc2)nc1CCOc1ccc(CC2(C(=O)O)CCC2)cc1

>  <experimentalValue>
5.60

$$$$
>  <compound>
COc1ccc(-c2nc(CCOc3ccc(CC4(C(=O)O)CCCO4)cn3)c(C)o2)cc1 (stereo not shown)

>  <experimentalValue>
7.19

$$$$
>  <compound>
Cc1oc(-c2ccccc2)nc1CCOc1ccc(CC2(C(=O)O)CCCCO2)nc1 (stereo not shown)

>  <experimentalValue>
5.74

$$$$

###

- experimentalTarget: PPAR-γ (Homo sapiens, UniProt P37231)
- experimentNotes: Scintillation Proximity Assay (SPA), displacement of 3H labeled darglitazone
- Type: binding
- runConditions: PPAR-gamma Ki, 3H darglitazone displacement
pKi: −log10 of the molar value.
pKi listing for selected compounds.
recordedEndpoint: pKi

>  <compound>
COc1cccc(-c2nc(CCOc3ccc(CC4(C(=O)O)CCCO4)nc3)c(C)o2)c1 (centres unmarked) [Example C-54]

>  <experimentalValue>
7.70

$$$$
>  <compound>
Cc1oc(-c2ccccc2)nc1CCOc1cnc(CC2(C(=O)O)CCCO2)cn1 (centres unmarked) [Example C-77]

>  <experimentalValue>
6.82

$$$$

###

- experimentalTarget: PPAR-γ (Homo sapiens)
- experimentNotes: Scintillation Proximity Assay (SPA), displacement of 3H labeled darglitazone
- Type: binding
- runConditions: 3H darglitazone displacement, read-out: PPAR-gamma Ki
Entries and their Ki

>  <compound>
COC(Cc1ccc(OCCc2nc(-c3ccc(C)cc3)oc2C)nc1)C(=O)O [Example D-10]

>  <Ki, nM>
19

$$$$
>  <compound>
Cc1oc(-c2ccccc2)nc1CCCOC(=O)NCc1cccc(OC(C)(C)C(=O)O)c1 [Example B-19]

>  <Ki, nM>
740

$$$$
>  <compound>
Cc1oc(-c2ccc(Cl)cc2)nc1CCOc1ccc(CC2(C(=O)O)CCCO2)nc1 (stereo not shown) [Example C-52]

>  <Ki, nM>
300

$$$$
>  <compound>
CC(C)(Oc1cccc(-c2cccc(OCCCOCc3ccccc3)c2)c1)C(=O)O [Example A-27]

>  <Ki, nM>
2400

$$$$

###

- experimentalTarget: PPAR-γ (Homo sapiens, UniProt P37231)
- experimentNotes: Scintillation Proximity Assay (SPA), displacement of 3H labeled darglitazone
- Format: binding
- runConditions: 3H darglitazone displacement, read-out: PPAR-gamma Ki
pKi: −log10 of the molar value.

>  <compound>
COc1ccc(-c2nc(CCOc3ccc(CC4(C(=O)O)CCCO4)cc3)c(C)o2)cc1 (centres unmarked)

>  <pKi>
7.68

$$$$
>  <compound>
COc1ccc(-c2ccc(CCOc3ccc(CC4(C(=O)O)CCC4)cc3)cc2)cc1

>  <pKi>
5.02

$$$$
>  <compound>
Cc1ccc(-c2nc(CCOc3ccc(CC4(C(=O)O)CCC4)cc3)c(C)o2)cc1

>  <pKi>
7.17

$$$$
>  <compound>
Cc1nc(CCOc2ccc(CC3(C(=O)O)CCCO3)cn2)c(C)s1 (centres unmarked)

>  <pKi>
5.38

$$$$
>  <compound>
Cc1ccc(-c2nc(CCOc3ccc(CC4(C(=O)O)CCCO4)cc3)c(C)o2)cc1 (centres unmarked)

>  <pKi>
8.10

$$$$
>  <compound>
COC(C)(Cc1ccc(OCCc2nc(-c3ccccc3)oc2C)cn1)C(=O)O (centres unmarked)

>  <pKi>
6.40

$$$$
>  <compound>
COC(Cc1ccc(OCCc2nc(-c3ccc(Cl)cc3)oc2C)nc1)C(=O)O (centres unmarked)

>  <pKi>
6.36

$$$$
>  <compound>
Cc1oc(-c2ccc(C(N)=O)cc2)nc1CCOc1ccc(CC2(C(=O)O)CCC2)cc1

>  <pKi>
6.72

$$$$
>  <compound>
Cc1oc(-c2ccccc2)nc1CCCOC(=O)NCc1cccc(OC2(C(=O)O)CCC2)c1

>  <pKi>
5.74

$$$$
>  <compound>
Cc1oc(-c2ccccc2)nc1COC(=O)NCc1ccc(OC(C)(C)C(=O)O)cc1

>  <pKi>
6.32

$$$$
>  <compound>
O=C(O)C1(Cc2ccc(OCCCc3nc(-c4ccccc4)oc3-c3ccccc3)cc2)CCC1

>  <pKi>
5.14

$$$$
>  <compound>
CCOC(Cc1ccc(OCCc2ccc(OS(=O)(=O)c3ccccc3)cc2)nc1)C(=O)O (centres unmarked)

>  <pKi>
7.51

$$$$
>  <compound>
COC(C)(Cc1ccc(OCCc2nc(-c3ccc(C(F)(F)F)cc3)oc2C)nc1)C(=O)O (centres unmarked)

>  <pKi>
6.00

$$$$
>  <compound>
CS(=O)(=O)c1ccc(-c2ccc(CCOc3ccc(CC4(C(=O)O)CCC4)cc3)cc2)cc1

>  <pKi>
5.70

$$$$
>  <compound>
Cc1oc(-c2ccccc2)nc1COc1ccc(OC2(C(=O)O)CCC2)cc1

>  <pKi>
4.48

$$$$
>  <compound>
Cc1oc(-c2ccccc2)nc1CCCOc1cccc(-c2cccc(OC(C)(C)C(=O)O)n2)c1

>  <pKi>
5.46

$$$$
>  <compound>
COC(C)(Cc1ccc(OCCc2nc(-c3cc(C)nn3C)oc2C)nc1)C(=O)O (centres unmarked)

>  <pKi>
5.30

$$$$
